Reference source for all entries: paper PMC3090455

target: human mEH (Homo sapiens, UniProt P07099); experiment: Inhibition potency assay with [3H]-cSO radiochemical substrate, human mEH; assay type: biochemical; conditions: read-out: IC50, Human mEH, cSO as substrate; [cSO] 50 μM, enzyme 3.2 μg/mL
pIC50: −log10 of the molar value.
ASSAY ENDPOINT: pIC50

[[record]]
molecule = "CCCCCCCC/C=C/CCCCCCCC(N)=O [B, elaidamide]"
val = 6.00


###

Biological target: human mEH (Homo sapiens, UniProt P07099)
Sequence (P07099 1-455): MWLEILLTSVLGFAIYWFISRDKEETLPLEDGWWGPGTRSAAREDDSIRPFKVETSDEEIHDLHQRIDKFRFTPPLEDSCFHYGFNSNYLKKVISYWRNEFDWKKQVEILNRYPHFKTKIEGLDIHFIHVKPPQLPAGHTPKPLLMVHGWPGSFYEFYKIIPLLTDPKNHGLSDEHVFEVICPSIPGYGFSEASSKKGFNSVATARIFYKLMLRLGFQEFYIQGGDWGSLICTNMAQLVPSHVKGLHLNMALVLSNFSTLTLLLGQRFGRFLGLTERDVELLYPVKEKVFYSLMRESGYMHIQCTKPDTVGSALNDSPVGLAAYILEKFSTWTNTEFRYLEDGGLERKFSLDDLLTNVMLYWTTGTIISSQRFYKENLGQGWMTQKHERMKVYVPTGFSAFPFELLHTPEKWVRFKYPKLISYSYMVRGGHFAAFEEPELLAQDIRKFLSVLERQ
Experiment: Inhibition potency assay with fluorescent substrate 11, human mEH
Assay type: biochemical
pIC50: −log10 of the molar value.
ASSAY ENDPOINT: pIC50

[[record]]
molecule = "CCCCCCC(O)CCCCCCCCCCC(N)=O (stereo not shown) [C, 12-hydroxy-octadecanamide]"
assay_endpoint = "pIC50"
val = "< 3.70"


###

Parameter: IC50. Scope: all listed entries.
Molecular target: human mEH (Homo sapiens, UniProt P07099)
Sequence (P07099 1-455): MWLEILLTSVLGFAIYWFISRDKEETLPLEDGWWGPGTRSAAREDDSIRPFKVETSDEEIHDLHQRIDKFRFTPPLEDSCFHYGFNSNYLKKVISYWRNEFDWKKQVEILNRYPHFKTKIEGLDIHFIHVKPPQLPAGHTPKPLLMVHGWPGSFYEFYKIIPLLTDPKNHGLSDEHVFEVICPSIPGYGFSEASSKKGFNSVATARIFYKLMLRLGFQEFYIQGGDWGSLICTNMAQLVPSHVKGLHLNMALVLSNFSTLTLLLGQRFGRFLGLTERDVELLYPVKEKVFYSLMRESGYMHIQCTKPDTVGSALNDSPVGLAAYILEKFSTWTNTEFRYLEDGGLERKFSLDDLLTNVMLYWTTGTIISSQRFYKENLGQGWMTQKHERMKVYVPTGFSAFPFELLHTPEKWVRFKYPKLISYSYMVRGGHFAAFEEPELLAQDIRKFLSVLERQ
Experiment: Inhibition potency assay with [3H]-cSO radiochemical substrate, human mEH
Format: biochemical
ASSAY ENDPOINT: IC50 (µM)

[[record]]
molecule = "CCCCCCCCCSC(C)C(N)=O (centres unmarked) [A, 2-nonylsulfanyl-propionamide]"
assay_endpoint = "IC50"
measure_unit = "µM"
val = 0.5

[[record]]
molecule = "CCCCCCC(O)CCCCCCCCCCC(N)=O (centres unmarked) [C, 12-hydroxy-octadecanamide]"
assay_endpoint = "IC50"
measure_unit = "µM"
val = 2.6


###

biological target: UniProt P07687; test: Inhibition potency assay with fluorescent substrate 11, rat mEH; assay type: biochemical; conditions: IC50, rat mEH, 11 as substrate near its KM, [11] = 2.5 μM
ASSAY ENDPOINT: IC50

[[record]]
molecule = "CCCCCCCCCSC(C)C(N)=O (stereo not shown) [A, 2-nonylsulfanyl-propionamide]"
assay_endpoint = "IC50"
val = "500 nM"


###

target: UniProt:P07687; assay: Inhibition potency assay with [3H]-cSO radiochemical substrate, rat mEH; assay type: biochemical
pIC50: −log10 of the molar value.
Parameter: pIC50. Scope: all listed entries.
ASSAY ENDPOINT: pIC50

[[record]]
compound = "CCCCCCCCCSC(C)C(N)=O (centres unmarked) [A, 2-nonylsulfanyl-propionamide]"
assay_endpoint = "pIC50"
val = 6.40

[[record]]
compound = "CCCCCCC(O)CCCCCCCCCCC(N)=O (centres unmarked) [C, 12-hydroxy-octadecanamide]"
assay_endpoint = "pIC50"
val = 5.96


###

biological target: rat mEH (Rattus norvegicus); assay: Inhibition potency assay with [3H]-cSO radiochemical substrate, rat mEH; format: biochemical; details: read-out: IC50, Rat mEH, cSO as substrate; [cSO] 50 μM, enzyme 1.0 μg/mL
ASSAY ENDPOINT: IC50 (nM)

[[record]]
compound = "CCCCCCCC/C=C/CCCCCCCC(N)=O [B, elaidamide]"
assay_endpoint = "IC50"
val = 500


###

Molecular target: rat mEH (Rattus norvegicus, UniProt P07687)
Sequence (P07687 1-455): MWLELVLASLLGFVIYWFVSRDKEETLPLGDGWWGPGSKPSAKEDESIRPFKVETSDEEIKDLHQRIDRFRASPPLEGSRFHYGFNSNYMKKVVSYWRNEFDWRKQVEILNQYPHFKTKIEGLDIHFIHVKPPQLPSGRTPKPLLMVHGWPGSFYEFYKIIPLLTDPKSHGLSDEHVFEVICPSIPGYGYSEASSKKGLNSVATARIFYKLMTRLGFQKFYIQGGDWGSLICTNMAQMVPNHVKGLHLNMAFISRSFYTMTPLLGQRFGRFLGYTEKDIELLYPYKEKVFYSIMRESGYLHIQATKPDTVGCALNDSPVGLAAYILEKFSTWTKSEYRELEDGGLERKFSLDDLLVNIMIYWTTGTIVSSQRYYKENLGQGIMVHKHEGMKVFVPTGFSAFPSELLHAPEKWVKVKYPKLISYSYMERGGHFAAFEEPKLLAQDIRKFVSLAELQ
Assay: Inhibition potency assay with fluorescent substrate 11, rat mEH
Format: biochemical
Conditions: IC50, Rat mEH, 11 as substrate, [11] 25 μM, enzyme 0.5 μg/mL, pH 8.5, 30°C
ASSAY ENDPOINT: IC50 (µM)

[[record]]
compound = "CCCCCCCCCSC(C)C(N)=O (centres unmarked) [A, 2-nonylsulfanyl-propionamide]"
val = 4.2

[[record]]
compound = "CCCCCCC(O)CCCCCCCCCCC(N)=O (centres unmarked) [C, 12-hydroxy-octadecanamide]"
val = 123

